Where a SMILES comes first, the peptide text is derived from it. Bridges are numbered along the chain shown (N, C = ends). [ ]: non-standard residue; d: D form. The star is where a group is joined. ξ: configuration not given here. ξDab(CH2SO3H) = NC(CCNCS(=O)(=O)O)C(=O)O; Heptanoyl(6-Me) = CC(C)CCCCC(=O)*; Dab = NCC[CH](N)C(=O)O
// values below are GI50; system is U251 CNS
measurement.label: GI50

[[record]]
molecule = "Cn1nc(C(F)(F)F)cc1-c1c[nH]c(OCc2ccc(Cl)cc2)c(-c2ccc(Cl)c(C(F)(F)F)c2)c1=O"
measurement_label = "GI50"
result = "1270 nM"

[[record]]
molecule = "COc1ccc(Cn2cc3c(c2-c2ccccc2)CCc2cnoc2-3)cc1OC"
measurement_label = "GI50"
result = "774 nM"

[[record]]
molecule = "Clc1ccc(Nc2ccnc(N3CCN(c4ccnc5cc(Cl)ccc45)CC3)n2)cc1"
measurement_label = "GI50"
result = "2840 nM"

[[record]]
molecule = "CC/C(=C(/c1ccc(O)cc1)c1ccc(OCCN)cc1)c1ccccc1"
measurement_label = "GI50"
result = "1820 nM"

[[record]]
molecule = "N/C(=N/N=C/c1ccccc1)N/N=C\\c1ccccc1"
measurement_label = "GI50"
result = "5080 nM"

[[record]]
molecule = "Cc1ccc2c(c1)c(Sc1ccc(C(=O)NO)cc1)c1n2CN(C)CC1"
measurement_label = "GI50"
result = "1610 nM"

[[record]]
molecule = "N#Cc1c(N)n2c(nc1=Nc1ccc(Cl)cc1)sc1cc(Cl)ccc12"
measurement_label = "GI50"
result = "6560 nM"

[[record]]
molecule = "CCC(C)C1NC(=O)C(CCNCS(=O)(=O)O)NC(=O)C(NC(=O)C(CCNCS(=O)(=O)O)NC(=O)C(NC(=O)C(CCNCS(=O)(=O)O)NC(=O)CCCCC(C)C)C(C)O)CCNC(=O)C(C(C)O)NC(=O)C(CCNCS(=O)(=O)O)NC(=O)C(CCNCS(=O)(=O)O)NC(=O)C(C(C)CC)NC1=O (stereo not drawn) ({Heptanoyl(6-Me)}-[ξDab(CH2SO3H)]T[ξDab(CH2SO3H)][Dab][ξDab(CH2SO3H)]II[ξDab(CH2SO3H)][ξDab(CH2SO3H)]T; lactam 4-C; configuration not given here)"
measurement_label = "GI50"
result = "8050 nM"

[[record]]
molecule = "CCN1C(=O)N(CC)C2C1NN=c1s/c(=C\\c3ccco3)c(=O)n12 (stereo not drawn)"
measurement_label = "GI50"
result = "576 nM"

[[record]]
molecule = "COc1cc(/C(=C2/O[C@@H]([C@H]3COC(C)(C)O3)[C@H]3OC(C)(C)O[C@@H]23)c2ccc3ccccc3c2)cc(OC)c1OC"
measurement_label = "GI50"
result = "3120 nM"

[[record]]
molecule = "CCOC(=O)c1cc(C(=O)c2cc(OC)c(OC)c(OC)c2)n2c1ccc1ccccc12"
measurement_label = "GI50"
result = "428 nM"

[[record]]
molecule = "COc1cc2c(cc1Cc1cccc(Cl)c1F)c(=O)c(C(=O)O)cn2[C@@H](CO)C(C)C"
measurement_label = "GI50"
result = "3170 nM"

[[record]]
molecule = "Cc1nc(-c2nc(-c3ccc(OC(F)(F)F)cc3)no2)nn1Cc1cccc(N2CCC(S(C)(=O)=O)CC2)c1"
measurement_label = "GI50"
result = "> 39300 nM"


---

# Test system: LOX IMVI melanoma
# protocol.summary: NCI tumour cell line growth inhibition, 48 h
measurement.label: TGI (µM)

[[record]]
molecule = "S=C(NCCNC(=S)[S][Sn]([c]1ccccc1)([c]1ccccc1)[c]1ccccc1)[S][Sn]([c]1ccccc1)([c]1ccccc1)[c]1ccccc1"
measurement_label = "TGI"
unit_abbrev = "µM"
modifier = "="
recorded_number = 0.0541

[[record]]
molecule = "O=C([O][Hg][CH2]C1OCCOC1[CH2][Hg][O]C(=O)c1ccccc1)c1ccccc1 (stereo not given)"
measurement_label = "TGI"
unit_abbrev = "µM"
modifier = "="
recorded_number = 7.56

[[record]]
molecule = "CCC(O)C1Cc2c(C)cc3c(c2O1)C(=O)c1ccccc1C3=O (stereo not given)"
measurement_label = "TGI"
unit_abbrev = "µM"
modifier = "="
recorded_number = 93.7

[[record]]
molecule = "CCCCCCCCCCCC(=O)N1CCN(C(C)=O)CC1"
measurement_label = "TGI"
unit_abbrev = "µM"
modifier = ">"
recorded_number = 100

[[record]]
molecule = "C=CCN1C[C@H](C)N([C@@H](c2ccc(C(=O)N3CCCCC3)cc2)c2cccc(OC)c2)C[C@H]1C"
measurement_label = "TGI"
unit_abbrev = "µM"
modifier = ">"
recorded_number = 100


---

# Tested on: SW-620 colon
# protocol.summary: NCI tumour cell line growth inhibition, 48 h; in the data active = GI50 below about 0.43 µM; inactive = the rest
Possible outcomes: y = active, n = inactive

[[record]]
molecule = "O=[N+]([O-])c1ccc(C2CC(c3ccccc3)=Nc3ccccc3S2)cc1 (stereo unspecified)"
study_target = "SW-620 colon"
class_assignment = "n"

[[record]]
molecule = "Clc1ccc(Nc2ccnc(N3CCN(c4ccnc5cc(Cl)ccc45)CC3)n2)cc1"
study_target = "SW-620 colon"
class_assignment = "n"

[[record]]
molecule = "Cc1ccc(-c2cc3c4c(nc5ccccc53)C(=O)c3cccnc3-c4n2)cc1"
study_target = "SW-620 colon"
class_assignment = "n"

[[record]]
molecule = "COc1ccc2c(c1)[nH]c(=O)c1c3ccccc3cn21"
study_target = "SW-620 colon"
class_assignment = "y"

[[record]]
molecule = "COc1ccc2c(O)c(/C=C3\\N=Nc4ccccc43)oc2c1C[C@@H]1CCNC[C@H]1F"
study_target = "SW-620 colon"
class_assignment = "n"

[[record]]
molecule = "CCOC(=O)Nc1nc2ccc(Br)cc2s1"
study_target = "SW-620 colon"
class_assignment = "n"

[[record]]
molecule = "S=C(NCCNC(=S)[S][Sn]([c]1ccccc1)([c]1ccccc1)[c]1ccccc1)[S][Sn]([c]1ccccc1)([c]1ccccc1)[c]1ccccc1"
study_target = "SW-620 colon"
class_assignment = "y"

[[record]]
molecule = "C#CCN(Cc1nc2cc(C(F)(F)F)ccc2nc1-c1ccccc1)c1ccc(C)cc1"
study_target = "SW-620 colon"
class_assignment = "n"

[[record]]
molecule = "COc1ccc2c(c1)oc(=O)c1cc(OC)ccc12"
study_target = "SW-620 colon"
class_assignment = "n"

[[record]]
molecule = "CCNC(=O)Nc1ccc(Oc2ccnc3ccc4c(ccn4C)c23)cc1"
study_target = "SW-620 colon"
class_assignment = "n"

[[record]]
molecule = "N#C[Se]CCN1C(=O)C2C(C1=O)[C@H]1C=C[C@@H]2S1 (stereo partly specified)"
study_target = "SW-620 colon"
class_assignment = "n"


---

Recorded TGI for the following compounds
# Tested on: SNB-19 CNS
# protocol.summary: NCI tumour cell line growth inhibition, 48 h
measurement.label: TGI (µM)

[[record]]
compound = "CCOC(=O)C(Cc1cn(C(C)=O)c2ccccc12)P(=O)(OCC)OCC (centres undefined)"
study_target = "SNB-19 CNS"
unit_abbrev = "µM"
modifier = ">"
recorded_number = 100

[[record]]
compound = "COc1ccc2[nH]cc(C(=O)C(=O)NC34CC5CC(CC(C5)C3)C4)c2c1"
study_target = "SNB-19 CNS"
unit_abbrev = "µM"
modifier = ">"
recorded_number = 100

[[record]]
compound = "CN(C)CCCNc1ncnc2c1ncn2C1OC(CO)C(O)C1O (centres undefined)"
study_target = "SNB-19 CNS"
unit_abbrev = "µM"
modifier = ">"
recorded_number = 100

[[record]]
compound = "CCCc1cc(=O)n2c(C(=O)Nc3cccc(C(=O)OCC)c3)c(C(=O)Nc3ccc(F)cc3)sc2n1"
study_target = "SNB-19 CNS"
unit_abbrev = "µM"
modifier = "="
recorded_number = 132

[[record]]
compound = "Cc1ccc(NC(=O)c2cc3ccccc3c(N=Nc3cc(S(=O)(=O)O)ccc3O)c2O)c(C)c1"
study_target = "SNB-19 CNS"
unit_abbrev = "µM"
modifier = "="
recorded_number = 71.3

[[record]]
compound = "CCCCCCCCCCCCSC1=C(Cl)C(=O)C(OC)=C(OC)C1=O"
study_target = "SNB-19 CNS"
unit_abbrev = "µM"
modifier = "="
recorded_number = 15

[[record]]
compound = "CCNC(=O)Nc1ccc(Oc2ccnc3ccc4c(ccn4C)c23)cc1"
study_target = "SNB-19 CNS"
unit_abbrev = "µM"
modifier = ">"
recorded_number = 100

[[record]]
compound = "Cn1c(=O)c2c(nc3sc4c(n32)C(=O)c2c(O)ccc(O)c2C4=O)n(C)c1=O"
study_target = "SNB-19 CNS"
unit_abbrev = "µM"
modifier = ">"
recorded_number = 91.5

[[record]]
compound = "O=c1/c(=C/c2ccc([N+](=O)[O-])o2)sc2n1[C@@H](c1ccc(Cl)cc1)C=C(c1cc(F)c(Cl)cc1Cl)N=2"
study_target = "SNB-19 CNS"
unit_abbrev = "µM"
modifier = "="
recorded_number = 33.6

